Numbers sourced from patent US8455520B2.

# study target: human sEH enzyme (Homo sapiens)
# Construct: His-tag (N, cleaved yes); made in house; host or cells: E. coli
# Sequence (P34913 whole entry): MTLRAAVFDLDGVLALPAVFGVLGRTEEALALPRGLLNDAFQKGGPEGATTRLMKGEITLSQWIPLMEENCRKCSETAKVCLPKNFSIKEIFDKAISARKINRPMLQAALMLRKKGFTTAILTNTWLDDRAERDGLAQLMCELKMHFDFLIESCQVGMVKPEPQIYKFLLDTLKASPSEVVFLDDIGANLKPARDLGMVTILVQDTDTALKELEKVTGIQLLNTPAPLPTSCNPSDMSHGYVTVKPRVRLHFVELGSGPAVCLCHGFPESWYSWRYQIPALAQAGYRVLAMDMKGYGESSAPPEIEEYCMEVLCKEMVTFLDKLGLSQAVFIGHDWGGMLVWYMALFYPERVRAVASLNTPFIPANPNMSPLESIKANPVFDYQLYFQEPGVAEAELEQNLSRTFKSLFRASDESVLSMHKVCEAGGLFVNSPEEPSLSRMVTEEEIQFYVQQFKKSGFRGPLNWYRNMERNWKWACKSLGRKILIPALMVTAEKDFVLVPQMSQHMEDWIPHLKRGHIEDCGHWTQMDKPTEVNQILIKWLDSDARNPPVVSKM
# test protocol: sEH human enzyme assay (fluorescence based enzyme in vitro assay)
# Assay type: biochemical
# reported conditions: recombinant human sEH about 1 nM, fluorescence substrate S7 10 uM, pH7.0, 25° C.; read-out: IC50 [nM] for human sEH enzyme inhibition
metric: IC50 (nM)

compound	metric	modifier	result value
O=C(NCc1ccc(Cl)c(Cl)c1)N1CCCC(CCc2noc(C(F)(F)F)n2)(c2ccccc2)C1 (stereo not drawn)	IC50	=	5
Cc1nc(C2(C)CCCN(C(=O)Nc3ccc(C(F)(F)F)cc3)C2)no1 (stereo not drawn)	IC50	=	5
CC1(c2ccccc2)CCCN(C(=O)NCCc2ccc(Cl)cc2)C1 (stereo not drawn)	IC50	<	1
CC1(c2ccccc2)CCCN(C(=O)NCC2CCc3ccccc3C2)C1 (stereo not drawn)	IC50	=	2
CCOC(=O)C1(Cc2cccc3ccccc23)CCCN(C(=O)Nc2ccc(C(F)(F)F)cc2)C1 (stereo not drawn)	IC50	=	3
CNC(=O)CCC1(c2ccccc2)CCCN(C(=O)Nc2ccc(Cl)cc2)C1 (stereo not drawn)	IC50	=	5
